test: log P by HPLC (OECD Guideline 117), method [a] acidic range; format: physicochemical; conditions: reversed-phase C18 HPLC column, pH 2.7, HPLC, acidic range, pH 2.7; read-out: log P[a]
Lab note: anything with chromatographic logP below 2 is marked Met; values at 2 or higher are marked Not met.

* Cc1cc(F)c(-n2nn[nH]c2=O)cc1SCC(F)(F)F | Not met
* CCSc1nn(-c2cc(SCC(F)(F)F)c(C)cc2F)c(=O)n1C | Not met
* Cc1cc(F)c(-n2nc(C)n(C)c2=O)cc1[S+]([O-])CC(F)(F)F (stereo not shown) | Met
* Cc1cc(F)c(N2CC(OC3CCCC3)=CC2=O)cc1SCC(F)(F)F | Not met
* CCSc1nn(-c2cc([S+]([O-])CC(F)(F)F)c(C)cc2F)c(=O)n1C (stereo not shown) | Not met

Request: Quick check: does Cc1cc(F)c(-n2nc(C3CCCC3)n(C3CC3)c2=O)cc1SCC(F)(F)F have chromatographic logP under 2?
Response: Not met

Request: Quick check: does Cc1cc(F)c(-n2nc(C(F)(F)F)n(C)c2=O)cc1[S+]([O-])CC(F)(F)F (stereo not shown) have chromatographic logP under 2?
Response: Not met

Request: Quick check: does Cc1ccc(SSc2cc(Br)ccc2C)cc1Br have chromatographic logP under 2?
Response: Not met

Request: Quick check: does Cc1cc(F)c(-n2nc(S(C)(=O)=O)n(C)c2=O)cc1SCC(F)(F)F have chromatographic logP under 2?
Response: Not met

Request: Quick check: does Cc1nn(-c2cc(SCC(F)(F)F)c(C)cc2F)c(=O)o1 have chromatographic logP under 2?
Response: Not met

Request: Quick check: does Cc1cc(F)c(-n2nnn(-c3ccc(Cl)cc3)c2=O)cc1[S+]([O-])CC(F)(F)F (stereo not shown) have chromatographic logP under 2?
Response: Not met

Request: Quick check: does Cc1cc(F)c(-n2nc(C3CCCC3)n(C3CC3)c2=S)cc1SCC(F)(F)F have chromatographic logP under 2?
Response: Not met

Request: Quick check: does Cc1cc(F)c(-n2nnn(C)c2=S)cc1SCC(F)(F)F have chromatographic logP under 2?
Response: Not met

Request: Quick check: does Cc1cc(F)c(-n2nc(C(=O)O)n(C(C)C)c2=O)cc1SCC(F)(F)F have chromatographic logP under 2?
Response: Not met

Request: Quick check: does Nc1cc(SCC(F)(F)F)c(Br)cc1F have chromatographic logP under 2?
Response: Not met

Request: Quick check: does CCn1ccn(-c2cc(SCC(F)(F)F)c(C)cc2F)c1=O have chromatographic logP under 2?
Response: Not met

Request: Quick check: does CC[S+]([O-])c1nn(-c2cc([S+]([O-])CC(F)(F)F)c(C)cc2F)c(=O)n1C (stereo not shown) have chromatographic logP under 2?
Response: Met

Request: Quick check: does Cc1cc(F)c(-n2nc(S(C)(=O)=O)n(C)c2=O)cc1[S+]([O-])CC(F)(F)F (stereo not shown) have chromatographic logP under 2?
Response: Met

Request: Quick check: does Cc1cc(F)c(-n2nc(C)n(C)c2=O)cc1SCC(F)(F)F have chromatographic logP under 2?
Response: Not met

====

test: log P by HPLC (OECD Guideline 117), method [b] neutral range; assay type: physicochemical; conditions: HPLC, method [b] neutral range
experimental.readout: logP[b]

Answered examples (7):
• CCCSc1nn(-c2cc(SCC(F)(F)F)c(C)cc2F)c(=O)n1CC [Example 288] = 3.13
• CCCOc1nn(-c2cc([S+]([O-])CC(F)(F)F)c(C)cc2F)c(=O)n1CC (centres unmarked) = 2.81
• CCn1c(OC)nn(-c2cc([S+]([O-])CC(F)(F)F)c(C)cc2F)c1=O (centres unmarked) = 2.07
• C=CCOc1nn(-c2cc(SCC(F)(F)F)c(C)cc2F)c(=O)n1C1CC1 = 3.70
• Cc1cc(F)c(-n2nc(C)n(N)c2=O)cc1[S+]([O-])CC(F)(F)F (centres unmarked) = 1.34
• Cc1cc(F)c(-n2nc(C(C)(C)C)n(C3CC3)c2=O)cc1SCC(F)(F)F = 4.11
• C=CCn1c(SCCC)nn(-c2cc(SCC(F)(F)F)c(C)cc2F)c1=O = 4.37

Here is another compound to look at.
Request: Value lookup for logP[b]; key = Cc1cc(F)c(-n2nc(OCC(C)(C)C)n(C)c2=O)cc1SCC(F)(F)F
Response: 4.29

====

assay: log P by HPLC (OECD Guideline 117), method [a] acidic range; assay type: physicochemical; conditions: HPLC, method [a] acidic range
experimental.readout: logP[a]
Please give only the number in your answer, with no unit.

Request: Value lookup for logP[a]; key = O=c1n(-c2cc(SCC(F)(F)F)c(Cl)cc2F)nc(OCC(F)(F)F)n1C1CC1
Response: 3.96

Request: Value lookup for logP[a]; key = CCCOC1=CC(=O)N(c2cc([S+]([O-])CC(F)(F)F)c(C)cc2F)C1 (stereo not shown)
Response: 2.57

Request: Value lookup for logP[a]; key = COCCc1nn(-c2cc(SCC(F)(F)F)c(C)cc2F)c(=O)n1C1CC1
Response: 2.97

Request: Value lookup for logP[a]; key = C=CCSc1nn(-c2cc(SCC(F)(F)F)c(C)cc2F)c(=O)n1CC=C
Response: 4.13

====

test: log P by HPLC (OECD Guideline 117), method [b] neutral range; type: physicochemical; conditions: HPLC, method [b] neutral range
Listed here are molecules together with their documented logP[b].

Answered examples (5):
• Cc1cc(F)c(-n2nc([S+]([O-])CC(F)F)n(C3CC3)c2=O)cc1[S+]([O-])CC(F)(F)F (centres unmarked) = 2.07
• Cc1cc(F)c(-n2ncn(Cc3ccccc3)c2=O)cc1SCC(F)(F)F = 3.34
• COC1=CC(=O)N(c2ccc(C#N)c(SCC(F)(F)F)c2)C1 = 2.43
• Cc1cc(F)c(-n2nc(SCC3CC3)n(C)c2=O)cc1SCC(F)(F)F = 3.83
• Cc1cc(F)c(-n2nnn(CC(F)(F)C(F)(F)F)c2=O)cc1[S+]([O-])CC(F)(F)F (racemic) = 3.01

Request: Value lookup for logP[b]; key = CC=Cc1nn(-c2cc([S+]([O-])CC(F)(F)F)c(C)cc2F)c(=O)n1C1CC1 (racemic)
Response: 2.42

Request: Value lookup for logP[b]; key = COn1c(C)nn(-c2cc([S+]([O-])CC(F)(F)F)c(C)cc2F)c1=O (centres unmarked)
Response: 1.74

Request: Value lookup for logP[b]; key = N#Cc1cc(F)c(-n2nc(C(F)(F)F)oc2=O)cc1SCC(F)(F)F
Response: 3.40

====

test: log P by HPLC (OECD Guideline 117), method [b] neutral range; type: physicochemical; details: HPLC, method [b] neutral range
Listed here are molecules together with their documented logP[b].
Please give only the number in your answer, with no unit.

Answered examples (7):
- Cc1cc(F)c(-n2nc(CCOC(C)C)n(C3CC3)c2=O)cc1[S+]([O-])CC(F)(F)F (centres unmarked): 2.61
- Cc1cc(C)c(-n2nc(C(F)(F)F)n(C3CC3)c2=O)cc1SCC(F)(F)F: 4.09
- COc1nn(-c2cc(SCC(F)(F)F)c(C)cc2F)c(=O)n1C: 2.73
- CCCCc1nn(-c2cc([S+]([O-])CC(F)(F)F)c(C)cc2F)c(=O)n1C1CC1 (racemic): 2.88
- Cc1cc(F)c(-n2nc(CC(C)C)n(C3CC3)c2=O)cc1[S+]([O-])CC(F)(F)F (racemic): 2.80
- Cc1cc(F)c(-n2nc(OCC(C)C)n(C)c2=O)cc1SCC(F)(F)F: 3.92
- Cc1cc(F)c(-n2nc(OC3CCCCC3)n(C)c2=O)cc1[S+]([O-])CC(F)(F)F (centres unmarked): 3.22

Here is another molecule to look at.
Request: Value lookup for logP[b]; key = Cc1ccc(-n2nnn(C)c2=O)cc1SCC(F)(F)F
Response: 3.04

====

experiment: log P by HPLC (OECD Guideline 117), method [a] acidic range; format: physicochemical; settings: HPLC, method [a] acidic range
Lab note: anything with logP[a] below 3 is marked 1 (yes); values at 3 or higher are marked 0 (no).

Use the examples below as a reference point.
* CCOc1nn(-c2ccc(C)c(SCC(F)(F)F)c2)c(=O)n1OC | 0 (no)
* COc1nn(-c2cc([S+]([O-])CC(F)(F)F)c(Cl)cc2Cl)c(=O)n1C (stereo not drawn) | 1 (yes)
* Cc1cc(Cl)c(-n2nc(OCC(F)(F)F)n(C3CC3)c2=O)cc1SCC(F)(F)F | 0 (no)
* CCCCc1nn(-c2cc(SCC(F)(F)F)c(C)cc2F)c(=S)n1C1CC1 | 0 (no)
* Cc1cc(F)c(-n2nc(-c3ccncc3)oc2=O)cc1SCC(F)(F)F | 0 (no)
* Cc1cc(F)c(-n2ncn(N)c2=O)cc1SCC(F)(F)F | 1 (yes)

Here is another compound to look at.
Request: Quick check: does Cc1cc(F)c(-n2nc(-c3ccc(Cl)cc3F)n(C)c2=O)cc1SCC(F)(F)F have logP[a] under 3?
Response: 0 (no)
